target: DNA topoisomerase 2-alpha (Homo sapiens); test: In vitro inhibition of Topoisomerase II-mediated DNA cleavage using supercoiled pBR322 plasmid DNA.
property label: EC50

The following compounds have reported results that may help.
> print(dat)
                                   compound   result
1  O=C1c2c(c3c4cc(O)ccc4n(C4OC(CO)C(O)C(O)C4O)c3c3[nH]c4ccccc4c23)C(=O)N1NC(CO)CO (stereo not drawn)  > 50 µM
2  O=C1c2c(c3c4cc(O)ccc4n(C4OC(CO)C(O)C(O)C4O)c3c3[nH]c4cc(O)ccc4c23)C(=O)N1NC(CO)CO (stereo not drawn)  > 50 µM

Kindly consider the entry below.
q: Dear colleague, I am looking for the recorded EC50 of the following compound: O=C1c2c(c3c4ccc(O)cc4n(C4OC(CO)C(O)C(O)C4O)c3c3[nH]c4cc(O)ccc4c23)C(=O)N1NC(CO)CO (stereo not drawn)
a: > 50 µM
